test: Intestinal S9 fraction stability, rat; conditions: male, Sprague-Dawley, rat, s9, Half-life (min), control compound, rat intestinal S9 fraction

- molecule: "C[C@]12CC[C@H]3[C@@H](CCC4=CC(=O)CC[C@@]43C)[C@@H]1CC[C@@H]2O [Testosterone, testosterone, reference compound]"
  half-life: "> 1 h"

====

assay: in vitro; conditions: male, Sprague-Dawley, rat, microsomes, 1 h, 1 μM
recorded.endpoint: % Remaining of Initial, 60 min

- compound: "CCCCCCCCCCCCCCCC(=O)NCCOC(=O)CCC(=O)OCC(COC(=O)CCCCCCC)OC(=O)CCCCCCC (stereo not shown) [Compound I-3, PEA-Succinate-Glycerol-Di-Caprylic]"
  reading: "68%"
- compound: "CCCCCCCCCCCCCCCC(=O)NCCOC(=O)CCC(=O)OCC(O)CO (stereo not shown) [Compound I-9]"
  reading: "<1.0%"
- compound: "CCCCCCCCCCCCCCCC(=O)NCCOC(=O)CCC(=O)OC[C@H]1O[C@@](CO)(O[C@H]2O[C@H](CO)[C@@H](O)[C@H](O)[C@H]2O)[C@@H](O)[C@@H]1O [Compound I-7]"
  reading: "2.1%"
- compound: "CCCCCCCCCCCCCCCC(=O)NCCOC(=O)CCC(=O)OCC(COC(=O)CCC)OC(=O)CCC (stereo not shown) [Compound I-11]"
  reading: "<1.0%"
- compound: "CCCCCCCCCCCCCCCC(=O)NCCOC(=O)CCC [Compound I-2]"
  reading: "<1.0%"
- compound: "CC/C=C\\C/C=C\\C/C=C\\C/C=C\\C/C=C\\CCCC(=O)OCCNC(=O)CCCCCCCCCCCCCCC [Compound I-5]"
  reading: "57%"
- compound: "CCCCC/C=C\\C/C=C\\CCCCCCCC(=O)OCCNC(=O)CCCCCCCCCCCCCCC [Compound I-6]"
  reading: "53%"

====

assay: Simulated intestinal fluid (SIF) stability in the presence of various enzymes; assay type: in vitro ADME; details: simulated intestinal fluid with trypsin, pH 6.8, SIF + Trypsin, 1 μM; read-out: Half-life
half-life at 1 μM for assorted compounds

- compound: "CCCCCCCCCCCCCCCC(=O)NCCOC(=O)CCC(=O)OCC(COC(=O)CCC)OC(=O)CCC (centres unmarked)"
  units.symbol: "min"
  reading.qualifier: "="
  half-life at 1 μM: 53
- compound: "CCCCCCCCCCCCCCCC(=O)NCCOC(=O)CCC(=O)OCC(COC(=O)CCCCCCC)OC(=O)CCCCCCC (centres unmarked) [Compound I-3, PEA-Succinate-Glycerol-Di-Caprylic]"
  units.symbol: "min"
  reading.qualifier: "="
  half-life at 1 μM: 93
- compound: "CCCCCCCCCCCCCCCC(=O)NCCOC(=O)CCC"
  units.symbol: "min"
  reading.qualifier: ">"
  half-life at 1 μM: 120
- compound: "CC/C=C\\C/C=C\\C/C=C\\C/C=C\\C/C=C\\CCCC(=O)OCCNC(=O)CCCCCCCCCCCCCCC"
  units.symbol: "min"
  reading.qualifier: "="
  half-life at 1 μM: 56
- compound: "CCCCCCCCCCCCCCCC(=O)NCCOC(=O)CCC(=O)OC[C@H]1O[C@@](CO)(O[C@H]2O[C@H](CO)[C@@H](O)[C@H](O)[C@H]2O)[C@@H](O)[C@@H]1O"
  units.symbol: "min"
  reading.qualifier: "="
  half-life at 1 μM: 50
- compound: "CCCCC/C=C\\C/C=C\\CCCCCCCC(=O)OCC(COC(=O)CCC(=O)OCCNC(=O)CCCCCCCCCCCCCCC)OC(=O)CCCCCCC/C=C\\C/C=C\\CCCCC (centres unmarked)"
  units.symbol: "min"
  reading.qualifier: "="
  half-life at 1 μM: 47
- compound: "CCCCCCCCCCCCCCCC(=O)NCCOC(=O)CCC(=O)OCC(O)CO (centres unmarked)"
  units.symbol: "min"
  reading.qualifier: "="
  half-life at 1 μM: 29
- compound: "CCCCC/C=C\\C/C=C\\CCCCCCCC(=O)OCCNC(=O)CCCCCCCCCCCCCCC"
  units.symbol: "min"
  reading.qualifier: ">"
  half-life at 1 μM: 120

====

Concentration (μM) of analyte PEA, 30 min for assorted molecules
test: in vitro; conditions: both, human, 30 min, 1 μM
recorded.endpoint: Concentration (μM) of analyte PEA, 30 min

- molecule: "CCCCCCCCCCCCCCCC(=O)NCCOC(=O)CCC"
  reading: "0.067 µM"
- molecule: "CCCCCCCCCCCCCCCC(=O)NCCOC(=O)CCC(=O)OCC(O)CO (stereo not shown)"
  reading: "0.22 µM"
- molecule: "CCCCC/C=C\\C/C=C\\CCCCCCCC(=O)OCCNC(=O)CCCCCCCCCCCCCCC"
  reading: "0.056 µM"
- molecule: "CCCCCCCCCCCCCCCC(=O)NCCOC(=O)CCC(=O)OCC(COC(=O)CCC)OC(=O)CCC (stereo not shown)"
  reading: "0.21 µM"
- molecule: "CC/C=C\\C/C=C\\C/C=C\\C/C=C\\C/C=C\\CCCC(=O)OCCNC(=O)CCCCCCCCCCCCCCC"
  reading: "0.074 µM"
- molecule: "CCCCCCCCCCCCCCCC(=O)NCCOC(=O)CCC(=O)OC[C@H]1O[C@@](CO)(O[C@H]2O[C@H](CO)[C@@H](O)[C@H](O)[C@H]2O)[C@@H](O)[C@@H]1O"
  reading: "0.63 µM"
- molecule: "CCCCCCCCCCCCCCCC(=O)NCCOC(=O)CCC(=O)OCC(COC(=O)CCCCCCC)OC(=O)CCCCCCC (stereo not shown) [Compound I-3, PEA-Succinate-Glycerol-Di-Caprylic]"
  reading: "0.034 µM"

====

Concentration (μM) of analyte PEA, 20 min for assorted compounds
Test: in vitro
Details: male, Beagle, dog, 20 min, 1 μM
Experimental: Reaction mixture, minus cofactors, was prepared as described below. Test article was added into the reaction mixture at a final concentration of 1 μM. […] Half-lives were calculated using GraphPad software, fitting to a single-phase exponential decay equation. Reaction mixture, minus cofactors, was prepared as described below. […] Half-lives were calculated using GraphPad software, fitting to a single-phase exponential decay equation. […]
recorded.endpoint: Concentration (μM) of analyte PEA, 20 min (µM)

- compound: "CCCCC/C=C\\C/C=C\\CCCCCCCC(=O)OCCNC(=O)CCCCCCCCCCCCCCC [Compound I-6]"
  reading: 0.041
- compound: "CCCCCCCCCCCCCCCC(=O)NCCOC(=O)CCC(=O)OCC(COC(=O)CCC)OC(=O)CCC (stereo not shown) [Compound I-11]"
  reading: 0.34
- compound: "CCCCCCCCCCCCCCCC(=O)NCCOC(=O)CCC [Compound I-2]"
  reading: 0.35
- compound: "CCCCCCCCCCCCCCCC(=O)NCCOC(=O)CCC(=O)OC[C@H]1O[C@@](CO)(O[C@H]2O[C@H](CO)[C@@H](O)[C@H](O)[C@H]2O)[C@@H](O)[C@@H]1O [Compound I-7]"
  reading: 0.15
- compound: "CCCCCCCCCCCCCCCC(=O)NCCOC(=O)CCC(=O)OCC(COC(=O)CCCCCCC)OC(=O)CCCCCCC (stereo not shown) [Compound I-3, PEA-Succinate-Glycerol-Di-Caprylic]"
  reading: 0.035
- compound: "CCCCCCCCCCCCCCCC(=O)NCCOC(=O)CCC(=O)OCC(O)CO (stereo not shown) [Compound I-9]"
  reading: 0.21
- compound: "CC/C=C\\C/C=C\\C/C=C\\C/C=C\\C/C=C\\CCCC(=O)OCCNC(=O)CCCCCCCCCCCCCCC [Compound I-5]"
  reading: 0.036

====

Concentration (μM) of analyte PEA, 0 min for assorted molecules
test: in vitro; details: male, CD-1, mouse, 0 min, 1 μM

- molecule: "CC/C=C\\C/C=C\\C/C=C\\C/C=C\\C/C=C\\CCCC(=O)OCCNC(=O)CCCCCCCCCCCCCCC"
  Concentration (μM) of analyte PEA, 0 min: "0.050 µM"
- molecule: "CCCCC/C=C\\C/C=C\\CCCCCCCC(=O)OCCNC(=O)CCCCCCCCCCCCCCC"
  Concentration (μM) of analyte PEA, 0 min: "0.12 µM"
- molecule: "CCCCCCCCCCCCCCCC(=O)NCCOC(=O)CCC(=O)OCC(COC(=O)CCCCCCC)OC(=O)CCCCCCC (stereo not shown) [Compound I-3, PEA-Succinate-Glycerol-Di-Caprylic]"
  Concentration (μM) of analyte PEA, 0 min: "0 µM"
- molecule: "CCCCCCCCCCCCCCCC(=O)NCCOC(=O)CCC"
  Concentration (μM) of analyte PEA, 0 min: "0.52 µM"
- molecule: "CCCCCCCCCCCCCCCC(=O)NCCOC(=O)CCC(=O)OCC(COC(=O)CCC)OC(=O)CCC (stereo not shown)"
  Concentration (μM) of analyte PEA, 0 min: "0 µM"
- molecule: "CCCCCCCCCCCCCCCC(=O)NCCOC(=O)CCC(=O)OCC(O)CO (stereo not shown)"
  Concentration (μM) of analyte PEA, 0 min: "0.0024 µM"
- molecule: "CCCCCCCCCCCCCCCC(=O)NCCOC(=O)CCC(=O)OC[C@H]1O[C@@](CO)(O[C@H]2O[C@H](CO)[C@@H](O)[C@H](O)[C@H]2O)[C@@H](O)[C@@H]1O"
  Concentration (μM) of analyte PEA, 0 min: "0.033 µM"

Source listed as patent US11547681B2.
